B1: glmS ribozyme (parent)
chain: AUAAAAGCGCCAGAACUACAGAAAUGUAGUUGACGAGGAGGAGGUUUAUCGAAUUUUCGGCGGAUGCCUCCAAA

Variants of: B1
Experiment: self-cleavage kobs at 40 uM GlcN6P; higher = faster cleavage; RNA array
Conditions: with glucosamine-6-phosphate
This sample holds only a part of the variants without activity.
variants and their reported self-cleavage kobs at 40 uM GlcN6P

{"variant description": "G29A U54A", "self-cleavage kobs at 40 uM GlcN6P": "0.000135 s⁻¹"}
{"variant description": "U30A G60U", "self-cleavage kobs at 40 uM GlcN6P": "< 1e-05 s⁻¹"}
{"variant description": "G41U C68U C71A", "self-cleavage kobs at 40 uM GlcN6P": "< 1e-05 s⁻¹"}
{"variant description": "C10G U65A", "self-cleavage kobs at 40 uM GlcN6P": "< 1e-05 s⁻¹"}
{"variant description": "G29C U65C", "self-cleavage kobs at 40 uM GlcN6P": "< 1e-05 s⁻¹"}
{"variant description": "C68A C70G", "self-cleavage kobs at 40 uM GlcN6P": "< 1e-05 s⁻¹"}
{"variant description": "A42C U69G", "self-cleavage kobs at 40 uM GlcN6P": "0.00174 s⁻¹"}
{"variant description": "A15U G29C A48G C71A", "self-cleavage kobs at 40 uM GlcN6P": "< 1e-05 s⁻¹"}
{"variant description": "A52C U56C", "self-cleavage kobs at 40 uM GlcN6P": "< 1e-05 s⁻¹"}
{"variant description": "U46G U47C", "self-cleavage kobs at 40 uM GlcN6P": "0.000104 s⁻¹"}
{"variant description": "A42U G60C C67A", "self-cleavage kobs at 40 uM GlcN6P": "< 1e-05 s⁻¹"}
{"variant description": "A14U G38U G63U", "self-cleavage kobs at 40 uM GlcN6P": "< 1e-05 s⁻¹"}
{"variant description": "A14C U47A", "self-cleavage kobs at 40 uM GlcN6P": "7.39e-05 s⁻¹"}
{"variant description": "G44A C67U", "self-cleavage kobs at 40 uM GlcN6P": "0.000707 s⁻¹"}
{"variant description": "A14G U56C", "self-cleavage kobs at 40 uM GlcN6P": "0.000291 s⁻¹"}
{"variant description": "A12C G40C", "self-cleavage kobs at 40 uM GlcN6P": "3.01e-05 s⁻¹"}
{"variant description": "U47C A64G", "self-cleavage kobs at 40 uM GlcN6P": "0.000131 s⁻¹"}
{"variant description": "A6C C11U A33C A36G U47G G59A", "self-cleavage kobs at 40 uM GlcN6P": "< 1e-05 s⁻¹"}
{"variant description": "U30A C58A G60C U69G", "self-cleavage kobs at 40 uM GlcN6P": "< 1e-05 s⁻¹"}
{"variant description": "G51U A52G", "self-cleavage kobs at 40 uM GlcN6P": "< 1e-05 s⁻¹"}
{"variant description": "A6G A15U G59A", "self-cleavage kobs at 40 uM GlcN6P": "< 1e-05 s⁻¹"}
{"variant description": "U30C G35U G41A U47A U57A C61G G63C C70A", "self-cleavage kobs at 40 uM GlcN6P": "< 1e-05 s⁻¹"}
{"variant description": "A6C G32C", "self-cleavage kobs at 40 uM GlcN6P": "< 1e-05 s⁻¹"}
{"variant description": "U46A A64G", "self-cleavage kobs at 40 uM GlcN6P": "0.000102 s⁻¹"}
{"variant description": "C10U A15G G40U", "self-cleavage kobs at 40 uM GlcN6P": "< 1e-05 s⁻¹"}
{"variant description": "A23C C70A", "self-cleavage kobs at 40 uM GlcN6P": "3.76e-05 s⁻¹"}
{"variant description": "C16U G59C", "self-cleavage kobs at 40 uM GlcN6P": "< 1e-05 s⁻¹"}
{"variant description": "G40A C68U", "self-cleavage kobs at 40 uM GlcN6P": "< 1e-05 s⁻¹"}
{"variant description": "G40U G51A", "self-cleavage kobs at 40 uM GlcN6P": "< 1e-05 s⁻¹"}
{"variant description": "G7C A15G A36U", "self-cleavage kobs at 40 uM GlcN6P": "< 1e-05 s⁻¹"}
{"variant description": "A33G U65G", "self-cleavage kobs at 40 uM GlcN6P": "< 1e-05 s⁻¹"}
{"variant description": "G51U G62C", "self-cleavage kobs at 40 uM GlcN6P": "< 1e-05 s⁻¹"}
{"variant description": "C8G G32U C34A", "self-cleavage kobs at 40 uM GlcN6P": "< 1e-05 s⁻¹"}
{"variant description": "A6C A12U G29A C68G", "self-cleavage kobs at 40 uM GlcN6P": "< 1e-05 s⁻¹"}
{"variant description": "A33U G37C U45C A64C", "self-cleavage kobs at 40 uM GlcN6P": "< 1e-05 s⁻¹"}
{"variant description": "G32C C34A", "self-cleavage kobs at 40 uM GlcN6P": "< 1e-05 s⁻¹"}
{"variant description": "C34G C58U", "self-cleavage kobs at 40 uM GlcN6P": "< 1e-05 s⁻¹"}
{"variant description": "A14G U54G G66A", "self-cleavage kobs at 40 uM GlcN6P": "0.000476 s⁻¹"}
{"variant description": "G51A A52C A53G", "self-cleavage kobs at 40 uM GlcN6P": "< 1e-05 s⁻¹"}
{"variant description": "C16U A52U", "self-cleavage kobs at 40 uM GlcN6P": "< 1e-05 s⁻¹"}
{"variant description": "C16G G51A", "self-cleavage kobs at 40 uM GlcN6P": "< 1e-05 s⁻¹"}
{"variant description": "C71A", "self-cleavage kobs at 40 uM GlcN6P": "0.00092 s⁻¹"}
{"variant description": "G7U A39G", "self-cleavage kobs at 40 uM GlcN6P": "< 1e-05 s⁻¹"}
{"variant description": "G38U G51C", "self-cleavage kobs at 40 uM GlcN6P": "< 1e-05 s⁻¹"}
{"variant description": "G35U A52C", "self-cleavage kobs at 40 uM GlcN6P": "< 1e-05 s⁻¹"}
{"variant description": "C16A C34A G37U C50A C61A", "self-cleavage kobs at 40 uM GlcN6P": "0.000276 s⁻¹"}
